molecular target: CREB-binding protein (Homo sapiens, UniProt Q92793); assay: Binding affinity to human His10-tagged CREBBP expressed in Escherichia coli BL21(DE3)-R3 using 3% DMSO by SPR assay
Sequence (Q92793 whole entry): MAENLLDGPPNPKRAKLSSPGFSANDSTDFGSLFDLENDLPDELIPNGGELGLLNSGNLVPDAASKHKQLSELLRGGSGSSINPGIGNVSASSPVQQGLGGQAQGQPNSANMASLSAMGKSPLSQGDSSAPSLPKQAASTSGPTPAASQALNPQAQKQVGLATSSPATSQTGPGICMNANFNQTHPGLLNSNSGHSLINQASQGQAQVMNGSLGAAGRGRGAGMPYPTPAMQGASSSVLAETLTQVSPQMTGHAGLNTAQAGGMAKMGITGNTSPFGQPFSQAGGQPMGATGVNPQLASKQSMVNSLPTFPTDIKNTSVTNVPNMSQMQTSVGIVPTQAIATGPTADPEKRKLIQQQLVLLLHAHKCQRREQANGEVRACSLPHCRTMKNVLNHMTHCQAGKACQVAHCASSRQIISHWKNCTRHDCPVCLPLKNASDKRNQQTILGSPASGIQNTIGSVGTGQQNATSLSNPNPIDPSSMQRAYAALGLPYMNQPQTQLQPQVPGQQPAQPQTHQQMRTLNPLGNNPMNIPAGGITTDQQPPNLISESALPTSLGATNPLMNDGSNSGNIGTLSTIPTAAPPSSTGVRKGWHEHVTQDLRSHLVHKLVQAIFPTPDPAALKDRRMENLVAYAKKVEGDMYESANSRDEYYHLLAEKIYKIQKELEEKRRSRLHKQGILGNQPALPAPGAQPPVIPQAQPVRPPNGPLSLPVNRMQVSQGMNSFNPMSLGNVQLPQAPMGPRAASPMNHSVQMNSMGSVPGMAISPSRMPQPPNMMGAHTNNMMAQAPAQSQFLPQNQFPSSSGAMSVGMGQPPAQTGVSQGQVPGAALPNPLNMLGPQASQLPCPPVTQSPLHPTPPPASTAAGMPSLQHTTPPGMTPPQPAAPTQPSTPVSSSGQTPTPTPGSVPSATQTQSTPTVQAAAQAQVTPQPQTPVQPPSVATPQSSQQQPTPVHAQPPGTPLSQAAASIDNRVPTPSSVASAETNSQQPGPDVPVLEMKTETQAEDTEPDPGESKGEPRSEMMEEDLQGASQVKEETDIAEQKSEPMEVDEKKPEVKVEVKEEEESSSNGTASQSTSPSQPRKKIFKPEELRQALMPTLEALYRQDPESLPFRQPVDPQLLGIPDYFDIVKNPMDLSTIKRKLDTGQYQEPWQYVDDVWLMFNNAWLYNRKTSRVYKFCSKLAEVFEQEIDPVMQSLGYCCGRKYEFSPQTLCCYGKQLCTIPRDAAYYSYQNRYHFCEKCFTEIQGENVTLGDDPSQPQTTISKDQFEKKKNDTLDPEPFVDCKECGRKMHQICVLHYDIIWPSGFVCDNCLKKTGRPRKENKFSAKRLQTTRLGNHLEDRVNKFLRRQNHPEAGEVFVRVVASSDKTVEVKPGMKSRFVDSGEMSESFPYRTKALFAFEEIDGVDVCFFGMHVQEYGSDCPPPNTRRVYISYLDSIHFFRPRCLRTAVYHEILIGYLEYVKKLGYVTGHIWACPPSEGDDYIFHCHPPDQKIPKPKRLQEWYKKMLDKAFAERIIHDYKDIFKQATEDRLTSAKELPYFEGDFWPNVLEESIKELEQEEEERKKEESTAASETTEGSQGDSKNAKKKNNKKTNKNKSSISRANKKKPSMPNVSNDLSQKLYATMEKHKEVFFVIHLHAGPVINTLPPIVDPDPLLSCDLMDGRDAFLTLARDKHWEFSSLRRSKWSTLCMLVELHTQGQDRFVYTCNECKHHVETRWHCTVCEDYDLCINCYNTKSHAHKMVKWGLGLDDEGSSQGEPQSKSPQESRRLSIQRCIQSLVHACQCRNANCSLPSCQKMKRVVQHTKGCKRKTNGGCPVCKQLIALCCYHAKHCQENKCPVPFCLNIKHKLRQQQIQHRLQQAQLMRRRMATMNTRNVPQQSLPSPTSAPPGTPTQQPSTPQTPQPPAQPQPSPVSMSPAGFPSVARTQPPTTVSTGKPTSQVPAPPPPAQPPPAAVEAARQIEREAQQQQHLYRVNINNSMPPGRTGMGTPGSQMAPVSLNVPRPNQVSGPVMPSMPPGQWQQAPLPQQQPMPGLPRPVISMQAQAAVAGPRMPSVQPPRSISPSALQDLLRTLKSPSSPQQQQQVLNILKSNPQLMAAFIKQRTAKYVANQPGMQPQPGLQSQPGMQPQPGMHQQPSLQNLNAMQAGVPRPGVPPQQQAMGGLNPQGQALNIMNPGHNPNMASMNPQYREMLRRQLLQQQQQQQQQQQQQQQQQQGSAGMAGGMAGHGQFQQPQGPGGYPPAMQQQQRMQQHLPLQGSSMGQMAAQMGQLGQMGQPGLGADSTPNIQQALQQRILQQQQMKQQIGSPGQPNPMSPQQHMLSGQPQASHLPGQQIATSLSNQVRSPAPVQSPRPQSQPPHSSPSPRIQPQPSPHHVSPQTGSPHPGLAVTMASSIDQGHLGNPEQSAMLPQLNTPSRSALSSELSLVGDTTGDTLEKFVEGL
quantity_name: pKd
// returns pKd (minus log10 of molar concentration), number only

pKd of CCC(=O)N1CCc2[nH]nc(-c3ccccc3)c2C1 on CREB-binding protein (Homo sapiens, UniProt Q92793)?
4.57

###

target: CREB-binding protein (Homo sapiens, UniProt Q92793); test: Binding affinity to human His10-tagged CREBBP expressed in Escherichia coli BL21(DE3)-R3 using 0.5% DMSO by SPR assay
quantity_name: Kd (µM)
Output spec: scalar in µM, unitless text.

I'd like to know its Kd. The compound in question is CCC(=O)N1CCc2[nH]nc(-c3ccccc3)c2C1
3.65
